Every entry's value here was drawn from the PETadex activity labels (doi:10.1002/cssc.202101062).

Substrate: gfPET
experimentSummary: Proxy for plastic degradation [Released monomer concentration (HPLC/LC-MS) (TPA+MHET+BHET)]
assayContext: 55 °C
readoutKind: Proxy for plastic degradation (mmol/h)
The response must be a number in mmol/h with no trailing unit.

// below: answered proteins
1. unnamed (protein) MDNPYERGPDPTTQSVEAARGPYAVSQITVGGQFGSYSGGTIYYPTSTADGKFGAVAIAPGFLSFQSSVAWLGPRLASQGFVVMTIDTGTIFDQPAQRGDQLLDALDFLTQRSSVKDRIDPNRLAVAGWSMGGGGSLEAAADRPSLKAAIPMAGWNLNTNWSRLTTPVLVVGVQNDLIAPVGSHSEPFYNSIRSEKAYLELAGGSHFTVTSANTPQAKLMISWLKRFVDNDTRYEQFICPGPSRGFSVSEYRSTCPF = 0.21
2. unnamed (protein) MANPYERGPNPTDALLEARSGPFSVSEENVSRLSASGFGGGTIYYPRENNTYGAVAISPGYTGTEASIAWLGERIASHGFVVITIDTITTLDQPDSRAEQLNAALNHMINRASSTVRSRIDSSRLAVMGHSMGGGGSLRLASQRPDLKAAIPLTPWHLNKNWSSVTVPTLIIGADLDTIAPVATHAKPFYNSLPSSISKAYLELDGATHFAPNIPNKIIGKYSVAWLKRFVDNDTRYTQFLCPGPRDGLFGEVEEYRSTCPF = 0.08

Briefly, Proxy for plastic degradation measured for unnamed (protein) MENPYERGPDPTTQSVEAARGPYAVSQITVGGQFGSYSGGTIYYPTSTADGKFGAVAIAPGFLSFQSSVAWLGPRIASQGFVVMTIDTGTIFDQPAQRGDQLLDALDFLTQRSSVKDRIDPNRLAVAGWSWGGGGSLEAAADRPSLKAAIPMAGWNLNTNWSRLTTPVLVVGVQNDLIAPVAMHSEPFYNSIRSEKAYLELAGGSHFTVTSANTPQAKLMISWLKRFVDNDTRYEQFICPGPSRGFSVSEYRSTCPY : 0.13
